Field: activation. Provide a value for each of the compounds that follow.
Assay: enhancers of NFkB p65 translocation in HUVEC – imaging, IL-1B stimulus, high-content imaging, primary screen (AID 819);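 further: percent activation is computed from the nuclear over cytoplasmic p65 intensity ratio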
Settings: HUVEC IL-1B NFkB p65 nuclear translocation imaging; at 2 µM; hits give high values
The whole screen tested about 94,000 compounds, of which about 280 (0.3%) were called active. The entries come from a sample that favours actives as a whole.
Answer format: numeric, % implied, no suffix.

Data request: Determine from records and report activation for Cc1ccc(CNC(=O)CCNC(=O)Cn2ccc3ccccc3c2=O)cc1
Data returned: -10.3

Data request: Determine from records and report activation for CC(C)(C)Cc1nnc(NC(=O)c2cc(-c3ccccc3)nc3ccccc23)s1
Data returned: 41.2

Data request: Determine from records and report activation for O=c1c2ccccc2nc2n1C(CSc1ccc(Cl)cc1)CN2 (stereo unspecified)
Data returned: -5.53

Data request: Determine from records and report activation for Cc1ccc2nc(-c3ccccc3)cc(C(=O)O)c2c1
Data returned: 1.92

Data request: Determine from records and report activation for Cc1cccc(N2CCN(C(=O)CN(C)S(=O)(=O)c3ccc4c(c3)CCC(=O)N4)CC2)c1C
Data returned: -2.04

Data request: Determine from records and report activation for O=C(c1ccc2c(c1)OCO2)N1CCOCC1
Data returned: -1.72

* * *

Test: enhancers of NFkB p65 translocation in HUVEC – imaging, IL-1B stimulus, high-content imaging, primary screen (AID 819);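 further: percent activation is computed from the nuclear over cytoplasmic p65 intensity ratio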
Settings: HUVEC IL-1B NFkB p65 nuclear translocation imaging; at 2 µM; hits give high values
Among all 94,000 compounds or so, about 280 (0.3%) were called active. The sample as a whole holds a higher share of actives than the screen did.
Field: activation. Provide a value for each of the compounds that follow.
Answer format: numeric, % implied, no suffix.

Data request: Determine from records and report activation for CCOC(=O)C1(S(=O)(=O)c2ccccc2)CCN(Cc2ccccc2)CC1
Data returned: 2.52

Data request: Determine from records and report activation for Cn1c2ccccc2n2c(=O)c(=O)n(CC(=O)c3ccc(F)cc3)nc12
Data returned: 47.4

Data request: Determine from records and report activation for COCc1cc(C(C)=O)ccc1OC
Data returned: 2.42

Data request: Determine from records and report activation for CCOC(=O)C1=C(CN2CCc3ccccc32)NC(=O)NC1c1cc(C)ccc1C (stereo unspecified)
Data returned: 3.45

Data request: Determine from records and report activation for CCC(=O)Nc1ccc2nc(C)n(Cc3ccccc3Cl)c(=O)c2c1
Data returned: -5.54

Data request: Determine from records and report activation for COc1ccc(CCNC(=S)NC(=O)/C=C/c2ccc(C)cc2)cc1OC
Data returned: -6.74

Data request: Determine from records and report activation for COc1cccc(-c2cc(C(=O)N/N=C/c3ccc(OC)c(COC(C)=O)c3)c3ccccc3n2)c1
Data returned: 0.06

Data request: Determine from records and report activation for CC(C)c1ccc(NC(=O)CCN2C(=O)c3ccc([N+](=O)[O-])cc3C2=O)cc1
Data returned: 6.09

Data request: Determine from records and report activation for CCOC(=O)c1c(NC(=O)CSc2nnc(CNc3ccc(C)cc3C)o2)sc(C)c1C
Data returned: 13.4

Data request: Determine from records and report activation for Cc1ccccc1/[N+]([O-])=C/c1ccncc1
Data returned: 15.8

Data request: Determine from records and report activation for CCN(CC)c1nc(-c2ccccc2)cc(C(F)(F)F)c1C#N
Data returned: 1.7

* * *

Assay: enhancers of NFkB p65 translocation in HUVEC – imaging, IL-1B stimulus, high-content imaging, primary screen (AID 819);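 further: percent activation is computed from the nuclear over cytoplasmic p65 intensity ratio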
Details: HUVEC IL-1B NFkB p65 nuclear translocation imaging; at 2 µM
In all, about 94,000 compounds went through this assay and about 280 (0.3%) were called active.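 Rule for the calls: active = activation above 40%, about the mean plus 3 SD, also judged a hit on visual image review; inconclusive = activation above 40% but not a hit on visual review; inactive = activation not above 40% and no visual hit.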 Many of the other results were omitted from the sample, so actives are more common in it than they were.
Pick one and only one: true for active, false for inactive

Data request: State the result this test recorded for O=c1nc2s/c(=C\c3ccco3)c(=O)n2nc1Cc1ccccc1 .
Data returned: false

Data request: State the result this test recorded for CCOC(=O)c1c(NC(=O)CSc2nnc(C)c(=O)[nH]2)sc2c1CCC2 .
Data returned: false

Data request: State the result this test recorded for Cc1ccnc(N2CCC(C(=O)NC3CCCCCC3)CC2)n1 .
Data returned: false

Data request: State the result this test recorded for COC(=O)c1c(NC(=O)CSc2nncs2)sc2c1CCCCC2 .
Data returned: true

Data request: State the result this test recorded for CCOc1ccccc1/C=c1\sc2nc(-c3ccco3)nn2c1=O .
Data returned: true

Data request: State the result this test recorded for N#Cc1ccc(Oc2cc(C(F)(F)F)nc(-c3ccccn3)n2)cc1 .
Data returned: true

Data request: State the result this test recorded for c1ccc(-n2ncc3c(N4CCCC4)ncnc32)cc1 .
Data returned: false

Data request: State the result this test recorded for CCOc1ccccc1C(=O)NCc1ccco1 .
Data returned: false

Data request: State the result this test recorded for CC(=O)c1cnn(-c2cc(Oc3ccc(F)cc3)ncn2)c1C .
Data returned: false

Data request: State the result this test recorded for Nc1c(-c2ccc(F)cc2)cnn1C1CCS(=O)(=O)C1 (stereo not given) .
Data returned: false

Data request: State the result this test recorded for CCN(CC)CCNc1ccc(Cl)cc1[N+](=O)[O-] .
Data returned: false

Data request: State the result this test recorded for COC(=O)c1ccc(OCC(=O)NC(C)(C)C)cc1 .
Data returned: false

Data request: State the result this test recorded for CC1CCC2(CC1)NC(=O)N(CC(=O)c1cccn1C)C2=O (stereo not given) .
Data returned: false

Data request: State the result this test recorded for CCn1c(SCc2ccc(C)cc2)nnc1-c1nn(-c2ccccc2)ccc1=O .
Data returned: false

Data request: State the result this test recorded for Cc1ccccc1-n1c(C)cc(/C=N/NC(=O)c2ccc(CN3CCOCC3)cc2)c1C .
Data returned: false

* * *

Test: enhancers of NFkB p65 translocation in HUVEC – imaging, IL-1B stimulus, high-content imaging, primary screen (AID 819);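 further: percent activation is computed from the nuclear over cytoplasmic p65 intensity ratio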
Conditions: HUVEC IL-1B NFkB p65 nuclear translocation imaging; at 2 µM; hits give high values
The campaign covered roughly 94,000 compounds. About 280 (0.3%) were called active. The list comes from a sample in which actives are over-represented; it also holds close analogues and randomly drawn compounds.
propertyName: activation (%)
Answer format: numeric, % implied, no suffix.

Data request: Determine from records and report activation for CCCN1Cc2cccc(C(=O)Nc3ccc(S(=O)(=O)N4CCCCCC4)cc3)c2C1=O
Data returned: 7.44

Data request: Determine from records and report activation for CCn1c(SC)nc(O)c(C(c2ccc(OC)c(O)c2)c2c(O)nc(SC)n(CC)c2=O)c1=O
Data returned: 59.4

Data request: Determine from records and report activation for COc1cc(OC)cc(C(=O)NC2CCN(C(=O)N3c4ccccc4Sc4ccccc43)CC2)c1
Data returned: 1.07

Data request: Determine from records and report activation for Cc1ccccc1OC/C(O)=C(\C#N)c1nc2ccccc2[nH]1
Data returned: -7.29

Data request: Determine from records and report activation for CCOC(=O)CC(=O)CSc1nc(-c2ccccc2)cc(-c2ccc(Cl)cc2)c1C#N
Data returned: 5.19

Data request: Determine from records and report activation for CC1=C(C(N)=O)C(c2sccc2C)n2nnnc2N1 (configuration not stated)
Data returned: -11.1

Data request: Determine from records and report activation for CCOC(=O)c1c(NC(=S)NC(=O)c2ccco2)sc2c1CCCC2
Data returned: 53.7
